# experimental_target: delF508-CFTR (Homo sapiens, UniProt P13569, DEL508-508)
# Construct: expressed in transfected cells
# Sequence (P13569 with tags, fused parts or gaps DEL508-508): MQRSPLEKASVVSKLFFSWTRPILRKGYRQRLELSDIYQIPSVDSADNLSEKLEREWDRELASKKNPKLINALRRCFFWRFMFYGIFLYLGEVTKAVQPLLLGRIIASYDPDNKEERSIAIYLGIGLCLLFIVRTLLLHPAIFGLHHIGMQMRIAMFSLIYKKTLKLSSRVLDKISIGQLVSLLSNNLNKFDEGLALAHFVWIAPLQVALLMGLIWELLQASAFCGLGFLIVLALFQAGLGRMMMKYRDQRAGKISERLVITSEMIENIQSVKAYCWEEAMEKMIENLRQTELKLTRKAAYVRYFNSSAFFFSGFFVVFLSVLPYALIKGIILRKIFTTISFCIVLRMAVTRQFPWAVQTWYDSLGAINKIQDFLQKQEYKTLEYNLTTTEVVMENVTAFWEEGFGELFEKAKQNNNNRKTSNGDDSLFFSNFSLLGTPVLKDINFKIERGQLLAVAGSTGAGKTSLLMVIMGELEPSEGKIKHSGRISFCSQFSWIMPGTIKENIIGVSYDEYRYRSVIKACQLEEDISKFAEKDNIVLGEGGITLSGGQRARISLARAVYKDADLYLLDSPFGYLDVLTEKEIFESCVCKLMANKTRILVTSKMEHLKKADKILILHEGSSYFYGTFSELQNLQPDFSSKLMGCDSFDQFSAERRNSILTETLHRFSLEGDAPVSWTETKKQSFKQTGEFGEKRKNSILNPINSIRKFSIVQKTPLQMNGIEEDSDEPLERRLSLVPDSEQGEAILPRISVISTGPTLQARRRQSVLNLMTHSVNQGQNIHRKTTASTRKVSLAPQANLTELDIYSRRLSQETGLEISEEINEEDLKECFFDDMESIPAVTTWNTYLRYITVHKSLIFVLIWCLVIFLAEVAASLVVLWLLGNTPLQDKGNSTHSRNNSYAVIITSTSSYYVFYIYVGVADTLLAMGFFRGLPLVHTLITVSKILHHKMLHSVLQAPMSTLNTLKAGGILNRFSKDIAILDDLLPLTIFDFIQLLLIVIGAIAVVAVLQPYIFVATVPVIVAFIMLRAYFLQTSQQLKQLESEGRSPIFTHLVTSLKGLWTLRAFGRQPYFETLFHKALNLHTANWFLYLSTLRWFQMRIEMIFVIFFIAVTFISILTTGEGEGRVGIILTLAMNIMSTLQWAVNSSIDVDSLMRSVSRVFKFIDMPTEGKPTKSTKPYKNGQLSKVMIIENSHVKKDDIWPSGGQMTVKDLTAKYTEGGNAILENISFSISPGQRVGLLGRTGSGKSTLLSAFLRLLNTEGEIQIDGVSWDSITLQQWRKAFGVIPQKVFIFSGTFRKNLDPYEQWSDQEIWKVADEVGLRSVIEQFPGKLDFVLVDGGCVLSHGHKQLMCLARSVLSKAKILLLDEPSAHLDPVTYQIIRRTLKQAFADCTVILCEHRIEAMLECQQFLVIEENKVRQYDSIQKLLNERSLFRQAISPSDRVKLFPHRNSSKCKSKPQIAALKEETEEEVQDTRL
# procedure_text: delF508-CFTR functional activity in primary human bronchial epithelial cells (HBECs), Multi-Transepithelial Clamp Circuit (MTECC-24) assay
# Type: cell-based
# setup_conditions: test compound added 24 h before assay, with potentiator (S)-3-amino-6-methoxy-N-(3,3,3-trifluoro-2-hydroxy-2-methylpropyl)-5-(trifluoromethyl)picolinamide; relative to 2 μM 3-(6-(1-(2,2-difluorobenzo[d][1,3]dioxol-5-yl)cyclopropane-1-carboxamido)-3-methylpyridin-2-yl)benzoic acid + 0.5 μM N-(2,4-di-tert-butyl-5-hydroxyphenyl)-4-oxo-1,4-dihydroquinoline-3-carboxamide
Measured MTECC24-CFHBEC Amax % by item

compound: Cc1ccccc1-c1nc(NS(=O)(=O)c2cccc(N(CCC(=O)O)CC3CC3)n2)ccc1C(F)(F)F
experimental_target: delF508-CFTR (Homo sapiens, UniProt P13569, DEL508-508)
units_text: %
MTECC24-CFHBEC Amax %: 253
--
compound: Cc1ccc(F)cc1-c1nc(NS(=O)(=O)c2cccc(N(CCC(=O)O)CC(C)C)n2)ccc1C(F)(F)F
experimental_target: delF508-CFTR (Homo sapiens, UniProt P13569, DEL508-508)
units_text: %
MTECC24-CFHBEC Amax %: 207
--
compound: CCCN(CCCC(=O)O)c1cccc(S(=O)(=O)Nc2ccc(Cl)c(-c3c(C)cccc3C)n2)n1
experimental_target: delF508-CFTR (Homo sapiens, UniProt P13569, DEL508-508)
units_text: %
MTECC24-CFHBEC Amax %: 59
--
compound: Cc1ccccc1-c1nc(NS(=O)(=O)c2cccc(N3CCC[C@@H](CCC(=O)O)C3)n2)ccc1C(F)(F)F (single isomer, unassigned)
experimental_target: delF508-CFTR (Homo sapiens, UniProt P13569, DEL508-508)
units_text: %
MTECC24-CFHBEC Amax %: 149
--
compound: Cc1ccccc1-c1nc(NS(=O)(=O)c2cccc(N(CCCC(=O)O)C3CC3)n2)ccc1C(F)(F)F
experimental_target: delF508-CFTR (Homo sapiens, UniProt P13569, DEL508-508)
units_text: %
MTECC24-CFHBEC Amax %: 114
--
compound: Cc1ccc(F)cc1-c1nc(NS(=O)(=O)c2cccc(N(CCCC(=O)O)CC(C)C)n2)ccc1C(F)(F)F
experimental_target: delF508-CFTR (Homo sapiens, UniProt P13569, DEL508-508)
units_text: %
MTECC24-CFHBEC Amax %: 247
--
compound: CCc1ccc(F)cc1-c1nc(NS(=O)(=O)c2cccc(N(CC)CCC(=O)O)n2)ccc1C(F)(F)F
experimental_target: delF508-CFTR (Homo sapiens, UniProt P13569, DEL508-508)
units_text: %
MTECC24-CFHBEC Amax %: 145
--
compound: CCN(CCC(=O)O)c1cccc(S(=O)(=O)Nc2ccc(C(F)(F)F)c(-c3ccccc3C(C)C)n2)n1
experimental_target: delF508-CFTR (Homo sapiens, UniProt P13569, DEL508-508)
units_text: %
MTECC24-CFHBEC Amax %: 126
--
compound: CCc1ccc(F)cc1-c1nc(NS(=O)(=O)c2cccc(N(CC)CCCC(=O)O)n2)ccc1C(F)(F)F
experimental_target: delF508-CFTR (Homo sapiens, UniProt P13569, DEL508-508)
units_text: %
MTECC24-CFHBEC Amax %: 182

* * *

# experimental_target: delF508-CFTR (Homo sapiens, UniProt P13569, DEL508-508)
# Construct: expressed in transfected cells
# procedure_text: Measurement of delF508-CFTR-HRP surface expression in CFBE41o- cells
# Assay type: cell-based
# setup_conditions: HRP-tagged delF508-CFTR in CFBE41o- cells, 24 h with compound, luminescence, 10-point curve, top 10 μM
pEC50: −log10 of the molar value.
Measured pEC50 by item

molecule: Cc1ccccc1-c1nc(NS(=O)(=O)c2cccc(N[C@@H]3[C@@H]4CC[C@@H](C4)[C@@H]3C(=O)O)n2)ccc1C(F)(F)F (racemic) [109a 109b (racemic mixture)]
pEC50: 5.63
--
molecule: Cc1ccccc1-c1nc(NS(=O)(=O)c2cccc(NCC3(C(=O)O)CCC3)n2)ccc1C(F)(F)F
pEC50: 5.64
--
molecule: Cc1ccccc1-c1nc(NS(=O)(=O)c2cccc(N3CCCC(C)(CC(=O)O)C3)n2)ccc1C(F)(F)F (centres unmarked)
pEC50: 5.80
--
molecule: CCc1ccccc1-c1nc(NS(=O)(=O)c2cccc(N3CCC[C@H](CC(=O)O)C3)n2)ccc1C(F)(F)F
pEC50: 5.81
--
molecule: CC1(C(=O)O)CCN(c2cccc(S(=O)(=O)Nc3ccc(C(F)(F)F)c(-c4ccccc4Oc4ccccc4)n3)n2)CC1
pEC50: 5.84
--
molecule: Cc1cccc(C)c1-c1nc(NS(=O)(=O)c2cccc(N3CCC(CC(=O)O)CC3)n2)ccc1Cl
pEC50: 5.59
--
molecule: CCc1ccc(F)cc1-c1nc(NS(=O)(=O)c2cccc(N(CCC(=O)O)C(C)C)n2)ccc1C(F)(F)F
pEC50: 5.85
--
molecule: Cc1ccccc1-c1nc(NS(=O)(=O)c2cccc(N(C)CC3(C(=O)O)CCCC3)n2)ccc1C(F)(F)F
pEC50: 5.69
--
molecule: Cc1ccccc1-c1nc(NS(=O)(=O)c2cccc(N3CCC[C@@](C)(CC(=O)O)C3)n2)ccc1C(F)(F)F (single isomer, unassigned)
pEC50: 5.79
--
molecule: C=Cc1ccccc1-c1nc(NS(=O)(=O)c2cccc(N3CCCC(CCC(=O)O)C3)n2)ccc1C(F)(F)F (centres unmarked)
pEC50: 5.96
--
molecule: CCN(CCCC(=O)O)c1cccc(S(=O)(=O)Nc2ccc(C(F)(F)F)c(-c3ccccc3C)n2)n1
pEC50: 5.77
--
molecule: Cc1ccccc1-c1nc(NS(=O)(=O)c2cccc(N(CCCC(=O)O)C(C)C)n2)ccc1C(F)(F)F
pEC50: 5.86
--
molecule: CCc1ccccc1-c1nc(NS(=O)(=O)c2cccc(N3CCCC(CCC(=O)O)C3)n2)ccc1C(F)(F)F (centres unmarked)
pEC50: 5.98
--
molecule: CCN(CCC(=O)O)c1cccc(S(=O)(=O)Nc2ccc(C(F)(F)F)c(-c3cccc(F)c3C)n2)n1
pEC50: 5.66

* * *

Measured Emax by item
# experimental_target: delF508-CFTR (Homo sapiens, UniProt P13569, DEL508-508)
# Construct: expressed in transfected cells
# procedure_text: Measurement of delF508-CFTR-HRP surface expression in CFBE41o- cells
# Assay type: cell-based
# setup_conditions: efficacy relative to reference compound 3-(6-(1-(2,2-difluorobenzo[d][1,3]dioxol-5-yl)cyclopropane-1-carboxamido)-3-methylpyridin-2-yl)benzoic acid; CFBE41o- cells, 24 h; read-out: DelF508-CFTR-HRP Amax %
reported_endpoint: Emax (%)

compound: Cc1ccc(F)cc1-c1nc(NS(=O)(=O)c2cccc(N(C)CCC(=O)O)n2)ccc1C(F)(F)F [Compound 48]
measurement: 513

compound: CCN(CCC(=O)O)c1cc(S(=O)(=O)Nc2ccc(Cl)c(-c3cc(F)ccc3C)n2)ccn1 [Compound 144]
measurement: 52

compound: Cc1cccc(C)c1-c1nc(NS(=O)(=O)c2ccnc(NCCC(=O)O)c2)ccc1Cl [Compound 2]
measurement: 124

compound: C=Cc1ccccc1-c1nc(NS(=O)(=O)c2cccc(N3CCC[C@H](CC(=O)OCC)C3)n2)ccc1C(F)(F)F [Compound 77]
measurement: 945

* * *

Measured EC50 by item
# experimental_target: delF508-CFTR (Homo sapiens, UniProt P13569, DEL508-508)
# Construct: expressed in transfected cells
# procedure_text: Measurement of delF508-CFTR-HRP surface expression in CFBE41o- cells
# Assay type: cell-based
# setup_conditions: HRP-tagged delF508-CFTR in CFBE41o- cells, 24 h with compound, luminescence, 10-point curve, top 10 μM

compound: Cc1ccccc1-c1nc(NS(=O)(=O)c2cccc(N3CCCC(CC(=O)O)C3)n2)ccc1C(F)(F)F (centres unmarked)
EC50 [µM]: 2.04

compound: O=C(O)CCCNc1cccc(S(=O)(=O)Nc2ccc(C(F)(F)F)c(-c3ccccc3C3CC3)n2)n1
EC50 [µM]: 2.53

compound: Cc1ccccc1-c1nc(NS(=O)(=O)c2cccc(NCCC(=O)O)n2)ccc1C(F)(F)F
EC50 [µM]: 2.6

compound: Cc1ccc(F)cc1-c1nc(NS(=O)(=O)c2cccc(N(CCCC(=O)O)C(C)C)n2)ccc1C(F)(F)F
EC50 [µM]: 1.68

compound: CC1(C(=O)O)CCN(c2cccc(S(=O)(=O)Nc3ccc(C(F)(F)F)c(-c4ccccc4-c4ncccn4)n3)n2)CC1
EC50 [µM]: 2.39

compound: Cc1ccccc1-c1nc(NS(=O)(=O)c2cccc(N(C)CCCCC(=O)O)n2)ccc1C(F)(F)F
EC50 [µM]: 1.6

compound: Cc1c(F)cccc1-c1nc(NS(=O)(=O)c2cccc(N(C)CC(C)(C)C(=O)O)n2)ccc1C(F)(F)F
EC50 [µM]: 1.82

compound: C=Cc1ccccc1-c1nc(NS(=O)(=O)c2cccc(N3CCCC(CCCC(=O)O)C3)n2)ccc1C(F)(F)F (centres unmarked)
EC50 [µM]: 1.46

compound: CN(CCC(=O)O)c1cccc(S(=O)(=O)Nc2ccc(C(F)(F)F)c(-c3ccccc3C3CC3)n2)n1
EC50 [µM]: 1.7

compound: CCN(CCCC(=O)O)c1cccc(S(=O)(=O)Nc2ccc(C(F)(F)F)c(-c3ccccc3C(C)C)n2)n1
EC50 [µM]: 0.97

compound: Cc1cccc(C)c1-c1nc(NS(=O)(=O)c2cccc(NCCCC(=O)O)n2)ccc1Cl
EC50 [µM]: 2.58

compound: Cc1ccccc1-c1nc(NS(=O)(=O)c2cccc(N3CCC(CC(=O)O)C3)n2)ccc1C(F)(F)F (centres unmarked)
EC50 [µM]: 1.8

compound: CCc1ccccc1-c1nc(NS(=O)(=O)c2cccc(N(CC)CCCC(=O)O)n2)ccc1C(F)(F)F
EC50 [µM]: 1.36

compound: Cc1ccc(F)cc1-c1nc(NS(=O)(=O)c2cccc(N(C)CC3(C(=O)O)CCOCC3)n2)ccc1C(F)(F)F
EC50 [µM]: 1.98

compound: CCN(CCC(=O)O)c1cccc(S(=O)(=O)Nc2ccc(C(F)(F)F)c(-c3ccccc3C3CC3)n2)n1
EC50 [µM]: 1.93

compound: Cc1ccccc1-c1nc(NS(=O)(=O)c2cccc(N(C)CCC(=O)O)n2)ccc1C(F)(F)F
EC50 [µM]: 2.58

compound: Cc1ccccc1-c1nc(NS(=O)(=O)c2cccc(N3CCC(O)(C(C)(C)C(=O)O)CC3)n2)ccc1C(F)(F)F
EC50 [µM]: 2.02

compound: Cc1ccccc1-c1nc(NS(=O)(=O)c2cccc(N(CCC(=O)O)C(C)C)n2)ccc1C(F)(F)F
EC50 [µM]: 1.67

compound: C=Cc1ccccc1-c1nc(NS(=O)(=O)c2cccc(N3CCC[C@H](CC(=O)OCC)C3)n2)ccc1C(F)(F)F
EC50 [µM]: 1.45

compound: CCc1ccccc1-c1nc(NS(=O)(=O)c2cccc(OC3CCC(C(=O)O)CC3)n2)ccc1C(F)(F)F (centres unmarked)
EC50 [µM]: 1.39

compound: Cc1ccc(F)cc1-c1nc(NS(=O)(=O)c2cccc(N(C)CC(C)(C)C(=O)O)n2)ccc1C(F)(F)F
EC50 [µM]: 1.57

compound: CCN(CCC(=O)O)c1cccc(S(=O)(=O)Nc2ccc(C(F)(F)F)c(-c3ccccc3C(C)C)n2)n1
EC50 [µM]: 1.57

compound: CCCN(CCC(=O)O)c1cccc(S(=O)(=O)Nc2ccc(C(F)(F)F)c(-c3ccccc3C)n2)n1
EC50 [µM]: 1.45

compound: Cc1ccc(F)cc1-c1nc(NS(=O)(=O)c2cccc(N(CCC(=O)O)CCC(F)(F)F)n2)ccc1C(F)(F)F
EC50 [µM]: 1.9

compound: Cc1ccc(F)cc1-c1nc(NS(=O)(=O)c2cccc(N3CCC[C@](C)(CC(=O)O)C3)n2)ccc1C(F)(F)F (single isomer, unassigned)
EC50 [µM]: 1.73

compound: CCCCN(CCC(=O)O)c1cccc(S(=O)(=O)Nc2ccc(C(F)(F)F)c(-c3cc(F)ccc3C)n2)n1
EC50 [µM]: 0.82

compound: Cc1cccc(C)c1-c1nc(NS(=O)(=O)c2cccc(NCCC(=O)O)n2)ccc1Cl
EC50 [µM]: 2.15

compound: Cc1ccc(F)cc1-c1nc(NS(=O)(=O)c2cccc(N(C)CCCCC(=O)O)n2)ccc1C(F)(F)F
EC50 [µM]: 1.35

compound: CCCCN(CCCC(=O)O)c1cccc(S(=O)(=O)Nc2ccc(C(F)(F)F)c(-c3cc(F)ccc3C)n2)n1
EC50 [µM]: 1.26

Value source: patent US20220127247A1
